Data provenance: the Human Domainome abundance scans (Beltran et al. 2025)

B1: Tyrosine-protein kinase BTK, residues 215 to 273; numbered along this chain, Q06187 (parent)
chain: ELKKVVALYDYMPMNANDLQLRKGDEYFILEESNLPWWRARDKNGQEGYIPSNYVTEAE

variants of: B1; assay: abundance fitness (aPCA) (normalised: wild type 0, dead -1); higher = more abundant; growth selection in yeast, the domain comes from the species named; details: Homo sapiens

# Mutation Spec, abundance fitness
data = [
    ("G45Q", -0.144),
    ("N17W", -0.115),
    ("R22Q", -0.011),
    ("E32V", 0.014),
    ("E47I", -0.142),
    ("D18R", 0.004),
    ("L21N", -0.806),
    ("N53W", -0.137),
    ("A58I", -0.223),
    ("R22F", -0.036),
    ("E31L", -0.122),
    ("L35P", 0),
    ("E32S", -0.018),
    ("G24S", -0.226),
    ("E47W", -0.104),
    ("V55H", -0.852),
    ("E32T", -0.013),
    ("D25R", -0.068),
    ("Y49E", -0.088),
    ("R41F", -0.142),
    ("I29M", -0.229),
    ("R39V", -0.065),
    ("P36K", 0.011),
    ("G45I", -0.809),
    ("D25K", -0.067),
    ("Q46F", -0.028),
    ("G24W", -0.34),
    ("T56Y", -0.191),
]
